# assay.procedure: NOVARTIS: Cytotoxicity against human hepatocellular carcinoma cell line (Huh7)
# Type: toxicity, cell-based, Huh-7
# test.conditions: Huh7 cells (hepatocellular carcinoma cell line)
# CC50 listing for each entry below
experimental.endpoint: CC50

# compound, experimental.endpoint, result
records = [
    ("Cc1ccc(-c2cc(-c3ccccc3)c(C#N)c(SCC(O)C[S+]([O-])Cc3ccccc3)n2)cc1 (centres undefined)", "CC50", "39.9 µM"),
    ("O=C(NCc1ccccc1)c1cnc(NCCCn2ccnc2)nc1NC1CCCC1", "CC50", "> 10 µM"),
    ("COc1ccc(C2CC(c3cccs3)=NN2C(=O)CSc2nnc(CNC(=O)c3cccs3)n2-c2cccc(C)c2)cc1 (centres undefined)", "CC50", "> 100 µM"),
    ("C=CCN1C(=O)/C(=C\\c2cc(Cl)c(O)c(OC)c2)C(=O)NC1=S", "CC50", "> 10 µM"),
    ("CCN(CC)CCN(Cc1cc2ccc(C)cc2[nH]c1=O)C(=S)NC(C)c1ccccc1 (centres undefined)", "CC50", "21.5 µM"),
    ("CC(=O)c1ccc(N2C(C)c3nc4ccccc4c(=O)n3C2c2cccc(O)c2)cc1 (centres undefined)", "CC50", "> 10 µM"),
    ("CSc1oc(C(C)(C)C)nc1[P+](c1ccccc1)(c1ccccc1)c1ccccc1", "CC50", "6.82 µM"),
    ("Oc1ccc(-c2ccccc2)cc1CN1CCCCC1", "CC50", "> 10 µM"),
    ("O=[N+]([O-])c1ccc(N2CCN(c3nc(NCCc4c[nH]c5ccccc45)c4ccccc4n3)CC2)cc1", "CC50", "14.3 µM"),
    ("O=C(COc1ccccc1)NC(c1ccco1)c1cc(Cl)c2cccnc2c1O (centres undefined)", "CC50", "> 100 µM"),
    ("CCCCCCCCCCCCCC(=O)Oc1ccccc1-c1nc2cc(C)ccn2c1NC(C)(C)CC(C)(C)C", "CC50", "> 10 µM"),
    ("CCOC(=O)C1=C(C)N=c2sc(=Cc3ccccc3OC(C)=O)c(=O)n2C1c1ccc(OC)cc1 (centres undefined)", "CC50", "> 100 µM"),
    ("COC(=O)[C@@H]1C[C@@H](NC(=O)c2ccc(OC)cc2OC)CN1Cc1ccc(C(F)(F)F)cc1", "CC50", "> 100 µM"),
    ("CCOC(=O)c1c(NC(=O)CSc2nnc(CNC(=O)c3cccc(C)c3)n2Cc2ccccc2)sc2c1CCCC2", "CC50", "> 14 µM"),
    ("COC(=O)c1cc(NC(=S)NC(=O)c2c(OC)cccc2OC)cc(C(=O)OC)c1", "CC50", "> 100 µM"),
    ("CCN(CCN1CCN(S(=O)(=O)c2cc(Cl)ccc2Cl)CC1)CC1=CCC2CC1C2(C)C (centres undefined)", "CC50", "> 10 µM"),
    ("Cc1ccc2nc3nc4c(C)cccc4c(N)c3cc2c1", "CC50", "6.94 µM"),
    ("CN(C)CCn1c(=N)n(CC(O)c2ccc(Cl)c(Cl)c2)c2ccccc21 (centres undefined)", "CC50", "> 10 µM"),
    ("COc1ccc(C2=C(c3ccc(OC)cc3)C3(c4ccccc4)C(=O)C2(c2ccccc2)C2C(=O)N(c4ccccc4)C(=O)C23)cc1 (centres undefined)", "CC50", "> 10 µM"),
]
